# Tested on: Escherichia coli TOP10;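 also: peptides expressed intracellularly from a pBAD plasmid library in pooled LB shake-flask culture, induced with 0.3% L-arabinose, DNA abundance read by NGS, three biological replicates, DESeq2 with apeglm shrinkage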
# PROTOCOL_DETAILS: shrunken log2 fold change of peptide-encoding DNA abundance (4.5 h post-induction vs induction); higher = less antimicrobial activity (less host growth inhibition)
# ASSAY_CONDITIONS: time post-induction: 4.5 h; library: site-saturation at positions 5, 18, 19, 20
PROPERTY_LABEL: shrunken log2 fold change
// keep it numeric: no unit symbol after the value

The sequence listed as RRIRNRPPRLPRPRPRPLNSPRP has a reported shrunken log2 fold change of -0.162

The sequence listed as RRIRFRPPRLPRPRPRPYGDPRP has a reported shrunken log2 fold change of -0.0819

The sequence listed as RRIRRRPPRLPRPRPRPECDPRP has a reported shrunken log2 fold change of 0.889

The sequence listed as RRIRGRPPRLPRPRPRPRFHPRP has a reported shrunken log2 fold change of 0.0803

The sequence listed as RRIRVRPPRLPRPRPRPRHCPRP has a reported shrunken log2 fold change of -0.383

---
The sequence listed as RRIRRRPPRLPRPRPRPVTDPRP has a reported shrunken log2 fold change of 0.0723

The sequence listed as RRIRERPPRLPRPRPRPCAIPRP has a reported shrunken log2 fold change of -0.15

The sequence listed as RRIRMRPPRLPRPRPRPCIPPRP has a reported shrunken log2 fold change of -0.159

Values compiled from the supplement of paper PMC9112550.
